- Test system: Plasmodium falciparum
- assay_procedure: Antimalarial activity against Plasmodium falciparum K1
- Assay type: functional
- stated_conditions: read-out: ED50 (the source's name)
Assignment: determine reported pEC50 for the given compounds.
Notebook: values listed as pEC50 are -log10 of the concentration (mol/L).

IN: So what's the measured pEC50 for this one? Cn1cnc(S(=O)(=O)N(Cc2ccccc2F)C2Cc3cc(C#N)ccc3N(Cc3cncn3C)C2)c1 (stereo in doubt; 212)
OUT: 6.30

IN: So what's the measured pEC50 for this one? Cn1cnc(S(=O)(=O)N(Cc2ccccc2F)C2Cc3cc(C#N)ccc3N(Cc3cncn3C)C2)c1 (stereo in doubt; 110)
OUT: 7.74

Hello, the source for this data is ChEMBL document CHEMBL1148785, in case you need it.
